Recorded values, source patent US5686458A.

Recorded IC50 values for a group of compounds are listed next.
- subject_of_test: Proton Pump (H^+ /K^+ ATPase) (Oryctolagus cuniculus)
- Construct: The microsomes thus obtained were used as an enzyme source of the in vitro enzyme reaction study of proton pump; from tissue; host or cells: rabbit stomach, mucosal scrapings, microsomes (180,000 g pellet)
- Sequence (P27112 whole entry): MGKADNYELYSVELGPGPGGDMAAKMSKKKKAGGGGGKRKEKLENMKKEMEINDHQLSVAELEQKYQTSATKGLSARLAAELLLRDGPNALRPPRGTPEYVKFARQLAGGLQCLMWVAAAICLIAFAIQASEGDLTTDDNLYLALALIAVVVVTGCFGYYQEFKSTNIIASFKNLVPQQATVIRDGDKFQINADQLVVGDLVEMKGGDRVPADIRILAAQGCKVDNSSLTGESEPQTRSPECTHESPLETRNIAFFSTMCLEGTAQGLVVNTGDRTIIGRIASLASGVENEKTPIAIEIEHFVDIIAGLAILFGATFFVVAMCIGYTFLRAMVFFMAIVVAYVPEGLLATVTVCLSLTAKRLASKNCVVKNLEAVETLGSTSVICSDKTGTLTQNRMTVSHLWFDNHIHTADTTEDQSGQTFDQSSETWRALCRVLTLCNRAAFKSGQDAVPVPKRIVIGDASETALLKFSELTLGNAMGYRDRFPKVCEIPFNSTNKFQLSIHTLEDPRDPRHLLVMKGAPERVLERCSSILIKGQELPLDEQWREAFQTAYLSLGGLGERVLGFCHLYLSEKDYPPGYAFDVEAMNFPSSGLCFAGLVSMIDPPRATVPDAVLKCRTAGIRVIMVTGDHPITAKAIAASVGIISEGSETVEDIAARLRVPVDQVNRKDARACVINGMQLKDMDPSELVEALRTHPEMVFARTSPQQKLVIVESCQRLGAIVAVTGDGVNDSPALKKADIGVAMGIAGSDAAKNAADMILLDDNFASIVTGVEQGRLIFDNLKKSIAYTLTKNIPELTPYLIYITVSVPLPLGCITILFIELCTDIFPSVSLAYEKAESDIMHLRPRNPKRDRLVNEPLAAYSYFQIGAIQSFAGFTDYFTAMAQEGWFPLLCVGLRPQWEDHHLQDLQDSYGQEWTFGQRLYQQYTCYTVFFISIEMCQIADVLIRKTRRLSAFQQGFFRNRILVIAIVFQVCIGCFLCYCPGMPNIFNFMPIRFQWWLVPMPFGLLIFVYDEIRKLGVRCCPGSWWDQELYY
- Sequence (P18597 whole entry partner): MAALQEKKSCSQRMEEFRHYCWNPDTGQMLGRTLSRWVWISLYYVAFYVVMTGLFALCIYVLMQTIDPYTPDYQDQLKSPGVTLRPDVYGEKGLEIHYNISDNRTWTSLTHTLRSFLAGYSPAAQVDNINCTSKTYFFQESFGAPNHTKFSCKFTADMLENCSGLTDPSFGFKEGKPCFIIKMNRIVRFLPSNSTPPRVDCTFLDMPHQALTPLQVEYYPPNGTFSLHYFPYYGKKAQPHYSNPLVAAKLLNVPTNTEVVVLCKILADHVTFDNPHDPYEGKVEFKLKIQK
- protocol_notes: Inhibition of Proton Pump (H+/K+ ATPase) Activity, in vitro enzyme reaction (Experiment 1)
- Assay type: biochemical, New Zealand white rabbit
- study_conditions: K+-stimulated H+/K+ ATPase activity, rabbit gastric microsomes, pH 7.2, 37° C., 15 min prereaction, 30 min reaction; read-out: IC50 of test compound, inhibition (50%) of the proton pump activity
Counter-ions that a name gives are not always drawn.

Guide cases for IC50, answers given:
COc1cccc2c(N3CC(C)c4ccccc4C3C)nc(Nc3ccc(F)cc3)nc12.Cl (stereo not shown) [Example 56, Hydrochloride] ... > 12.5 µM
COc1cccc2c(N3CCc4cc(C)ccc4C3C)nc(Nc3ccc(F)cc3C)nc12.Cl (stereo not shown) [Example 55, Hydrochloride] ... ~10 µM
COc1cccc2c(N3CCc4ccccc4C3)nc(N(C)c3ccc(F)cc3)nc12.Cl [Example 32, Hydrochloride] ... > 16 µM

Could you now look at the following compound, please?
# returns recorded IC50 (system: Proton Pump (H^+ /K^+ ATPase) (Oryctolagus cuniculus)) for CSCOc1cccc2c(N3CCc4ccccc4C3C)nc(Nc3ccc(F)cc3C)nc12 (stereo not shown) [Example 39, Hydrochloride]
4 µM
